Reference source: paper PMC4159296

- systemUnderTest: human TRPM8 (Homo sapiens)
- Construct: expressed in transfected cells; host or cells: T-REx-CHO (Chinese hamster ovary), tetracycline-induced
- Sequence (Q7Z2W7 whole entry): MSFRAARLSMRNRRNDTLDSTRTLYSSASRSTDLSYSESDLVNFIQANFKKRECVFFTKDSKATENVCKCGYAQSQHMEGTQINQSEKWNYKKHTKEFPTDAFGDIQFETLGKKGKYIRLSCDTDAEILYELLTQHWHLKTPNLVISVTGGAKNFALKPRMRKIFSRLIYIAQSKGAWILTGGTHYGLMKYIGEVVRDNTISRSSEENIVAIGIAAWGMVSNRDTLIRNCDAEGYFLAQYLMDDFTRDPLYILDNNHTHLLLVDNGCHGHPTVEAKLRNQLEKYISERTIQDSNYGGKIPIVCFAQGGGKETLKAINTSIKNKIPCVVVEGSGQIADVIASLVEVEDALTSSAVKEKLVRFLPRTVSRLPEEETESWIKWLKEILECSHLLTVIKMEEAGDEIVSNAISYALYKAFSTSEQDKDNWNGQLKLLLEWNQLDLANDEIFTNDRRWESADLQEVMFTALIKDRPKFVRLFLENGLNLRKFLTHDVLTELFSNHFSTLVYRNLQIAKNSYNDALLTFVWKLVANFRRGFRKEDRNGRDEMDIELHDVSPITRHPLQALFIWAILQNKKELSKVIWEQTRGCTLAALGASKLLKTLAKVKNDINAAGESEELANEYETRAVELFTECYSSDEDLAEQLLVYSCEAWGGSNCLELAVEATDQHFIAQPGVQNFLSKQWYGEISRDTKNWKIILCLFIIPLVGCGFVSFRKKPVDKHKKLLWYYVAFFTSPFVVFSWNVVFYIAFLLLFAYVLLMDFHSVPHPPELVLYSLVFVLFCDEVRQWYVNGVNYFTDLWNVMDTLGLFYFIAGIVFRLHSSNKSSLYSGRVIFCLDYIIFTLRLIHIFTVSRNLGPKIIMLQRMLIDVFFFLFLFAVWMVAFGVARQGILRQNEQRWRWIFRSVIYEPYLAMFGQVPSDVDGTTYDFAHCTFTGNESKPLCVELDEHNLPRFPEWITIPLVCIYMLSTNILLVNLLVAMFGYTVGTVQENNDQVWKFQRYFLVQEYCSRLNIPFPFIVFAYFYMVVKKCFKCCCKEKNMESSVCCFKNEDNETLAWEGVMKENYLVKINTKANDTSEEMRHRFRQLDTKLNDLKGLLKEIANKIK
- protocol: agonist-induced 45Ca2+ uptake assay, CHO cells expressing human TRPM8
- Format: cell-based
- conditionDescription: 1 µM icilin; CHO cells; mean ± SD, triplicate wells; read-out: IC50, icilin induced human TRPM8 channel activation
measuredQuantity: IC50 (nM)
Field: numeric (nM). Do not append units.

Prompt: Requested read-out: IC50. Entry: COc1cc(CN(CCN)C(=O)c2cccs2)ccc1OCc1ccccc1
Completion: 11

----------
- systemUnderTest: mouse TRPM8 (Mus musculus, UniProt Q8R4D5)
- Construct: expressed in transfected cells; host or cells: T-REx-CHO (Chinese hamster ovary), tetracycline-induced
- Sequence (Q8R4D5 whole entry): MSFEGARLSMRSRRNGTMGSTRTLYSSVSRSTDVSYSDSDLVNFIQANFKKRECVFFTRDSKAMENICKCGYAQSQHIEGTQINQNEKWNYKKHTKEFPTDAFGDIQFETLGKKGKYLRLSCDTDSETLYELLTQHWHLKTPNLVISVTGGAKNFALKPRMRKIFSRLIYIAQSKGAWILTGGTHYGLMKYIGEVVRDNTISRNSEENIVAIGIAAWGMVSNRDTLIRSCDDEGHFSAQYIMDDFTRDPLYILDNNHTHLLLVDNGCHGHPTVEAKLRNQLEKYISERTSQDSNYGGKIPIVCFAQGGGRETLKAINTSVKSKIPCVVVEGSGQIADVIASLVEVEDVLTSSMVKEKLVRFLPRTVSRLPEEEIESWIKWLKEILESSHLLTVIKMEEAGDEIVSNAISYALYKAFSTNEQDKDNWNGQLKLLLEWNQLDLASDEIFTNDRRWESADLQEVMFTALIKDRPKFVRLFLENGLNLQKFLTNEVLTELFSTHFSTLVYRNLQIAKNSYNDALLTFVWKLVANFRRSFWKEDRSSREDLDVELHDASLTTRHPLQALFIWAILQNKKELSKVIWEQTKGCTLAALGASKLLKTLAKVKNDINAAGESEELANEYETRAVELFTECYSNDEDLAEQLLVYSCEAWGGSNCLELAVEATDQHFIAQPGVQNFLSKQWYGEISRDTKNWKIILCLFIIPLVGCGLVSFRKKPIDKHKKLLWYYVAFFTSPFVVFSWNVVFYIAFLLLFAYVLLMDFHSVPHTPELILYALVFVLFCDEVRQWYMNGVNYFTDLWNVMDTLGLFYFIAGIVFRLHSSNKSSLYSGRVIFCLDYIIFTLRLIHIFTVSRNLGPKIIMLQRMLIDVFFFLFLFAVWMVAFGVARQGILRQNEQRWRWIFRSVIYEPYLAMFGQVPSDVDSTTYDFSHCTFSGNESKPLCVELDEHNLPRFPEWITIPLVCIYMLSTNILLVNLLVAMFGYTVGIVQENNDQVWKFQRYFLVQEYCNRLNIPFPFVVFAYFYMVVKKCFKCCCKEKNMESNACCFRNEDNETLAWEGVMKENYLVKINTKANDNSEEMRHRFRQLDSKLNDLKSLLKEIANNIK
- protocol: agonist-induced 45Ca2+ uptake assay, CHO cells expressing mouse TRPM8
- Type: cell-based
- conditionDescription: 100 µM menthol, mean ± SD, triplicate wells, read-out: IC50, menthol induced mouse TRPM8 channel activation
measuredQuantity: pIC50
Scale: pIC50 equals -log10([C]), with [C] in mol/L.

Prompt: Write down the reported pIC50 of COc1cc(CN(CCN)C(=O)c2cccs2)ccc1OCc1ccccc1 , test system: mouse TRPM8 (Mus musculus, UniProt Q8R4D5).
Completion: 8.70
